Source of measurements: the supplement of paper PMC6755084

B1: F1*; the commonest letter at each place (parent)
chain: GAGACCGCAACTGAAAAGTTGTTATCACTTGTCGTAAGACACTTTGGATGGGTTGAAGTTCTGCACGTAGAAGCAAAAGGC

Variants of: B1
Test: fraction ligated after 30 min (ligated reads / total reads); higher = more ligase activity
Conditions: with F1*sub RNA substrate (template-directed ligation), 42 °C
Reported fraction ligated values for the following variants.

{"change": "T30C G38C", "fraction ligated": 0.78}
{"change": "T30A C40A", "fraction ligated": 0.845}
{"change": "T35C T45G", "fraction ligated": 0.399}
{"change": "T25G G50A", "fraction ligated": 0.103}
{"change": "T23A G31C", "fraction ligated": 0.779}
{"change": "G47T T49C", "fraction ligated": 0.0788}
{"change": "G34C A37C", "fraction ligated": 0.806}
{"change": "C40T A48T", "fraction ligated": 0.798}
{"change": "A27C T45A", "fraction ligated": 0.598}
{"change": "T44C A56G", "fraction ligated": 0.793}
{"change": "G34C C40G", "fraction ligated": 0.818}
{"change": "T43A G50T", "fraction ligated": 0.614}
{"change": "G46C G47T", "fraction ligated": 0.0897}
{"change": "A24C A27G", "fraction ligated": 0.692}
{"change": "T23C G46C", "fraction ligated": 0.738}
{"change": "A41C T43A", "fraction ligated": 0.781}
{"change": "T25G T29C", "fraction ligated": 0.385}
{"change": "T32G T49C", "fraction ligated": 0.246}
{"change": "A41C G47T", "fraction ligated": 0.157}
{"change": "T29G G38C", "fraction ligated": 0.844}
{"change": "T44G G46C", "fraction ligated": 0.806}
{"change": "A37C G50A", "fraction ligated": 0.616}
